Each recorded value in this set is attributed to patent US20260248950A1.

System: WLBU2
Sequence (as listed by the source): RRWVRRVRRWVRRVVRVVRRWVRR
measurement-protocol: SELEX aptamer selection, sequencing fold change of samples binding to WLBU2 vs control
condition-notes: samples binding to WLBU2 compared to the control group; SELEX repeated 11 times
{SH} = thiol modification, used to bind gold nanoparticles
parameter-measured: FoldChange

molecule	result
WLBU2-R-3: SELEX aptamer specific to WLBU2, SEQ No. 4 (nucleic acid, listed as DNA, chemistry not fully specified) DNA: AAAACGACGGCCAGTGCGCGCGCTTTGCTTGTGTGAGCATTGCTTTTGCATTATTGGTTTGGTTGGTGTGGTTCGTGCGCGCCATGGTCATAGCTGT	2.7
WLBU2-R: SELEX aptamer specific to WLBU2, SEQ No. 1 in Table 2; thiol-modified at 3′-terminal for binding to gold nanoparticles (nucleic acid, DNA, 3' {SH}, backbone and methylation of C not given here) DNA: AAAACGACGGCCAGTGCGCGCGCTTTGCTTGTGTGAGCATTGCTTTTGCATTATTGGTTTGGTTGGTGTGGTTCGTGCGCGCCATGGTCATAGCCTGT	2.2
WLBU2-R-2: SELEX aptamer specific to WLBU2, SEQ No. 3 (nucleic acid, listed as DNA, chemistry not fully specified) DNA: AAAACGACGGCCAGTGGCTGGTAGGTTTGGGTGGTTTGGTTGGGATTCGGTTGGTTGGTACCAGCCATGGTCATAGCTGT	3.67

What measured FoldChange goes with WLBU2-R-1: SELEX aptamer specific to WLBU2, SEQ No. 2 (nucleic acid, listed as DNA, chemistry not fully specified) DNA: AAAACGACGGCCAGTCTTTCGCGGGGTCTGGGGTTGGGGTTGTGGGTTAATTGCACTTCGAAATGCATGGTCATAGCTGT ? 3.28
